Biological target: RET kinase V804M (Homo sapiens, UniProt P07949, V804M)
Sequence (P07949 29-1114 V804M): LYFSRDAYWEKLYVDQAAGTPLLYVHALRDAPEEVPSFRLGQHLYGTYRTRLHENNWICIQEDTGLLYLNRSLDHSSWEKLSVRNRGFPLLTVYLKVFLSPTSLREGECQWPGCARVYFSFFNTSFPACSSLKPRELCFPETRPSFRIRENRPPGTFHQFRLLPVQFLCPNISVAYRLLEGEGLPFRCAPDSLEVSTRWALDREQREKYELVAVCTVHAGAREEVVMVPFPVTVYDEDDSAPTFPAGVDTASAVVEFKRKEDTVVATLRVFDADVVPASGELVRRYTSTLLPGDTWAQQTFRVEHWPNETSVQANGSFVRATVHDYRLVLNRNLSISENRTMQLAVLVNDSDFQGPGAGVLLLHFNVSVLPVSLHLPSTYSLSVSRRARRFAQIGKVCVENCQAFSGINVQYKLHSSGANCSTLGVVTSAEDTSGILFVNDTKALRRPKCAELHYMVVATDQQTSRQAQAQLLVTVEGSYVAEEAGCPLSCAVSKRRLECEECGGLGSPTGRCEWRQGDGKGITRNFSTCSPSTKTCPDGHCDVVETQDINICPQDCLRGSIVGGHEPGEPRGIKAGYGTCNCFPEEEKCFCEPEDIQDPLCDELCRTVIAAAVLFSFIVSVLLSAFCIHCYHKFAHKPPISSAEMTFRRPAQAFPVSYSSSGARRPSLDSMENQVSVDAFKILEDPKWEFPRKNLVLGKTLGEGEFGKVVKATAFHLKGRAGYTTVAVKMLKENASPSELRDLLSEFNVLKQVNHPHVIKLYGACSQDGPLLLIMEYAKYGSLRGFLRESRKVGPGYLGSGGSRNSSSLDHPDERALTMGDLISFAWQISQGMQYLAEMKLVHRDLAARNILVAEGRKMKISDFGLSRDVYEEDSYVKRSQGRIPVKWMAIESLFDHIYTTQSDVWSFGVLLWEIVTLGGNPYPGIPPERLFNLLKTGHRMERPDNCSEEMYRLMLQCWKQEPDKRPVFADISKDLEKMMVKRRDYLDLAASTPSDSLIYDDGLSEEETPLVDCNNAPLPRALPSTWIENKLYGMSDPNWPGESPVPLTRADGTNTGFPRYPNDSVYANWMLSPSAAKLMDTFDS
Assay: RET Enzyme Assay (CisBio HTRF KinEASE-TK), V804M
Type: biochemical
Settings: read-out: RET V804M Enz FRET IC50
OBSERVED PROPERTY: IC50 (nM)

Known IC50 results, listed for orientation:
CC1Cc2c(c3c(N)ncnc3n2C(C)C)-c2noc(C3CC3)c2C1O (stereo not shown) [Example 61] = 136
CC(C)n1c2c(c3c(N)ncnc31)-c1noc(C3CC3)c1[C@@H](O)[C@H](C)C2 (relative stereo) [Example 62] = 138
Nc1ncnc2c1c1c(n2C(CF)CF)CC[C@@H](O)c2c-1noc2C1CC1 (single isomer, unassigned) [Example 127] = 21
CC(C)n1c2c(c3c(N)ncnc31)-c1noc(C3CC3)c1C(=O)N(CCc1cnn(C)c1)C2 [Example 16] = 1790

[I] COc1ccc(CCN2Cc3c(c4c(N)ncnc4n3C(C)C)-c3noc(C4CC4)c3C2=O)cc1 [Example 14]
[II] COC(=O)c1ccc2c(Cl)c3n(c2c1)C(=O)NCc1c-3c2c(N)ncnc2n1C(C)C [Example 75]
[III] CC(C)n1c2c(c3c(N)ncnc31)-c1noc(C3CC3)c1[C@@H](O)[C@H](C)C2 (single isomer, unassigned) [Example 64]
Exercise: // ascending sort on recorded IC50 I'd appreciate it if you listed the labels in the requested order.
Solution: III, I, II
(III: 182 nM, I: 865 nM, II: 2030 nM)

* * *

Biological target: RET kinase Wild Type (Homo sapiens, UniProt P07949);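 note: HTRF kinase activity assay on RET enzyme, 1 h reaction at 22 °C, dual-wavelength readout as percent of control, DMSO-only wells as 100%, pre-quenched reactions as 0%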
Sequence (P07949 29-1114): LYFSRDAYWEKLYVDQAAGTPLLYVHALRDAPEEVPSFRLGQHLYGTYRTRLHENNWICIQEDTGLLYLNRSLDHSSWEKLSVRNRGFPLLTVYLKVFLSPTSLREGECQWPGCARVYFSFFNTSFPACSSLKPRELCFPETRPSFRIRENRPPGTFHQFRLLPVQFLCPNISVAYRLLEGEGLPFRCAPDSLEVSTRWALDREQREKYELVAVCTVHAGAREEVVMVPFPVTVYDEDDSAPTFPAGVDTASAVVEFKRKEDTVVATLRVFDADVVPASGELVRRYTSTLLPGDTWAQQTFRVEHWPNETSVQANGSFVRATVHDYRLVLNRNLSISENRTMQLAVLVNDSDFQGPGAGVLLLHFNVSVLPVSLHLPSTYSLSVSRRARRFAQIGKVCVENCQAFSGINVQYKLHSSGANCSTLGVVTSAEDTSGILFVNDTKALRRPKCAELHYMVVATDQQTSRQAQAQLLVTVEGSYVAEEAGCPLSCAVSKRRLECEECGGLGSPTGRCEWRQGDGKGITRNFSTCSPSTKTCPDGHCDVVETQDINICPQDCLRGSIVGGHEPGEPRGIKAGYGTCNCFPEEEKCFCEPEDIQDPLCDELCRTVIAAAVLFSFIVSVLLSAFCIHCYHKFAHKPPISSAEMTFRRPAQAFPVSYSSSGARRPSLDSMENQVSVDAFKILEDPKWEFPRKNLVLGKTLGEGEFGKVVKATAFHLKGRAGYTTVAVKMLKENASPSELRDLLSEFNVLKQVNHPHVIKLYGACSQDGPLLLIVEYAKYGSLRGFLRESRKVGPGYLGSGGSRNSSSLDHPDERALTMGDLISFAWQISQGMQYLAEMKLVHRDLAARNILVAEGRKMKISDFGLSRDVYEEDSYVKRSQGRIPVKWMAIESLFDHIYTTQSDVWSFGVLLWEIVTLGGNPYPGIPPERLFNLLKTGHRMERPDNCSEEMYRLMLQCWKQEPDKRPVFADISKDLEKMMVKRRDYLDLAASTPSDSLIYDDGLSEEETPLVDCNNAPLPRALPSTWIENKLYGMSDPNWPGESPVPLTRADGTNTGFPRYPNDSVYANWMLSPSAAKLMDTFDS
Test: biochemical
OBSERVED PROPERTY: IC50 (nM)

Study these solved cases before continuing.
CC(C)n1c2c(c3c(N)ncnc31)-c1ccc(NC(=O)CC3CC3)cc1C(=O)NC2 = 2440
CC(C)n1c2c(c3c(N)ncnc31)-c1noc(C3CC3)c1C(=O)N(CCc1ccccc1)C2 = 41
COC(=O)c1ccc(-n2c3c(c4c(N)ncnc42)-c2noc(C4CC4)c2C(O)CC3)cc1 (stereo not shown) [Example 113, 2,2,2-trifluoroacetate] = 102
CCN1Cc2c(c3c(N)ncnc3n2C(C)C)-c2noc(C3CC3)c2C1=O = 52
CC(C)n1c2c(c3c(N)ncnc31)-c1cc3ccc(C(=O)NC4CC4)cc3n1CCC2 = 47

[a] CC(=O)Nc1ccc2cc3n(c2c1)CCCc1c-3c2c(N)ncnc2n1C(C)C
[b] CC(C)n1c2c(c3c(N)ncnc31)-c1cc3ccc(Cl)cc3n1C(=O)NC2
[c] COc1ccc(CCN2Cc3c(c4c(N)ncnc4n3C(C)C)-c3noc(C4CC4)c3C2=O)cc1
[d] CC(C)n1c2c(c3c(N)ncnc31)-c1cc3ccc(C(=O)NC4CC4)cc3n1C(=O)NC2
Exercise: Rank descending by IC50. Write the labels in rank order as requested.
Solution: d, b, c, a
(d: 512 nM, b: 182 nM, c: 112 nM, a: 75 nM)

[A] CC(C)n1c2c(c3c(N)ncnc31)-c1noc(C3CC3)c1C=CC2
[B] COC(=O)[C@H]1C[C@@H](n2c3c(c4c(N)ncnc42)-c2noc(C4CC4)c2C(O)CC3)C1 (stereo partly shown)
[C] CC(C)n1c2c(c3c(N)ncnc31)-c1ccc(Cl)cc1C(=O)NC2
Exercise: rank_up(items): orders items by reported IC50 in ascending numerical order. Thanks in advance for listing the labels in the requested order.
Solution: B, A, C
(B: 38 nM, A: 93 nM, C: 194 nM)

[a] CC(C)n1c2c(c3c(N)ncnc31)-c1cc3ccc(C(=O)NC4(C)CC4)cc3n1CCC2
[b] CC(C)n1c2c(c3c(N)ncnc31)-c1noc(C3CC3)c1[C@@H](O)[C@H](C)C2 (relative stereo) [Example 62]
[c] CC(C)n1c2c(c3c(N)ncnc31)-c1noc(C3CC3)c1CN(C(=O)C1CC1)C2
Exercise: Rank items: key IC50, increasing. Please reply with the labels ordered as requested. Many thanks.
Solution: b, a, c
(b: 34 nM, a: 73 nM, c: 342 nM)
